# assay protocol: Components of the Cytosolic LPS Sensing Pathway: Gene Identification via Genome-wide siRNA Screen
# particulars: RAW264.7 macrophages, IL-1a HTRF, actives lie on both sides, screened at 100 nM (by protocol), cells primed 5 h with Pam3CSK4 first
Among all 53,000 sequences or so, about 3,700 (7%) were called active.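 Rule for the calls: active = gene knockdowns whose robust z-score for IL-1 alpha signal is at least 2 or at most -2, so actives lie on both sides; inactive = the rest.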 The entries come from a sample that favours actives as a whole.
Select the correct class. Options are yes = active, no = inactive and nothing else.

# lookup: test call for GGAUGAUAUGGCAUACUUUTT against Fam221a
no

Call for entry GGUCCAGAGAAUGUUAUUATT against Spinkl :
no

Status in this test for GGUGUUUUAAGAUUGAAUGTT against Ccn1 ?
no

Per the records of this test, what outcome belongs to GGCCUUGAAGCAGAAGUCUTT against Gfra1 ?
no

Status in this test for GCUCUGUUCACACGUUUAATT against Arhgap10 ?
no

Recorded test call requested for GCGUAAAUCUCCACACUACTT against Vmn1r54
no

Identify the outcome logged in this assay for the sequence shown: GGUCUUUGUUAAGAAUCCUTT against Myo1f
no

GET /call?item= GGUACAAAAUGGCUUGUUGTT against Tmem215 returns the recorded outcome of this test.
yes

Lab log entry: GGUAGAAUUGUGAUCUCAGTT against Bco2 — outcome as called in the assay?
no

# outcome recorded in this test, key = GGUGAUGAAGAGGUUCCCUTT against Fzd4
no

Record request — test call for GGUGCCGAACGUGUAAUUATT against Rarb
no

Record request — test call for CCUGUCGUUCCUCCUUACATT against Sec11a
no
